# protocol-notes: qHTS for Inhibitors of the Functional Ribonucleoprotein Complex (vRNP) of Lassa (LASV) Arenavirus: LASV Primary Screen - GLuc reporter signal (AID 1347082); also: nearly all actives have a fitted effect of over 60% in size
# condition-description: LASV minigenome vRNP, Gaussia luciferase reporter; series mostly up to 57.5 µM
Records with an inconclusive call do not appear. Activity calls are given as the source filed them. Calls follow the shape of the full dose curve; tested in HEK293 reporter line.
Pick one and only one: true (active), false (inactive)

>  <compound>
N#CC(=Cc1ccc(O)c(O)c1)C(=O)NCc1ccccc1

>  <answer-label>
false

$$$$
>  <compound>
NCCC(=O)O

>  <answer-label>
false

$$$$
>  <compound>
Clc1nccc2c1ccc1ccccc12

>  <answer-label>
false

$$$$
>  <compound>
CCCCCCCCCC(C)=O

>  <answer-label>
false

$$$$
>  <compound>
CCCCCC(=O)N[C@@H](c1ccccc1)[C@@H](O)C(=O)O[C@H]1C[C@@]2(O)[C@@H](OC(=O)c3ccccc3)C3[C@](C)(C(=O)[C@H](O)C(=C1C)C2(C)C)[C@@H](OC1OCC(O)C(O)C1O)C[C@H]1OC[C@@]31OC(C)=O (stereo partly drawn)

>  <answer-label>
false

$$$$

How did this test come out for Nc1ncnc2n[nH]c(Nc3ccc(F)cc3)c12 ?
false

Try the compound CNC(=O)c1cccc(-c2ccc3c(N4CCOC[C@H]4C)nc(N4CCOC[C@H]4C)nc3n2)c1
true

Try the compound CC(C)=CCC/C(C)=C/COc1c2ccoc2cc2oc(=O)ccc12
false

====

Each record here notes measured Potency.
# protocol-notes: Primary qHTS for inhibitors of nuclear receptor binding SET domain protein 2 (NSD2) in an RCH-ACV wild type WT cells (2C) (AID 1645877); also: potency is read from the fitted curve at half-maximal effect; nearly all actives have a fitted effect of over 70% in size
# condition-description: RCH-ACV (leukaemia line) NSD2 WT (2C) viability, CellTiter-Glo, 72 h; series mostly up to 44.9 µM
Inconclusive results are not listed. Calls of active or inactive are those of the source. The call rests on the fitted dose curve; in most records, active means well fitted inhibition curve with a large enough effect; inconclusive means small, poorly fitted or top-dose-only effect; inactive means no such curve, though single readings can be large or run the other way.

>  <chemical-structure>
C[C@@H]1CCC/C=C/[C@H]2C[C@@H](O)C[C@@H]2[C@@H](O)/C=C/C(=O)O1

>  <recorded-measurement>
409 nM (active)

$$$$
>  <chemical-structure>
Cc1sc2c(c1C)C(c1ccc(Cl)cc1)=N[C@@H](CC(=O)Nc1ccc(O)cc1)c1nnc(C)n1-2

>  <recorded-measurement>
69 nM (active)

$$$$

// Potency lookup, key: CC1=C[C@H]2O[C@@H]3C[C@H]4OC(=O)/C=C/C=C/C(=O)OCC/C(C)=C/C(=O)OC[C@@]2(CC1)[C@]4(C)[C@]31CO1
3.2 nM (active)

====

# protocol-notes: qHTS for Inhibitors of the Functional Ribonucleoprotein Complex (vRNP) of Lymphocytic Choriomeningitis Arenaviruses (LCMV): Viability assay - alamar blue signal for LCMV Primary Screen (AID 1347085); also: nearly all actives have a fitted effect of over 80% in size
# condition-description: alamar blue viability counter-screen, LCMV vRNP screen cells; series mostly up to 57.5 µM
Records with an inconclusive call do not appear. Calls of active or inactive are those of the source. The call rests on the fitted dose curve; tested in HEK293 reporter line.
Pick one and only one: active, inactive

>  <compound>
CC(C)=CCC[C@](C)(O[C@@H]1O[C@H](CO)[C@@H](O)[C@H](O)[C@H]1O)[C@H]1CC[C@]2(C)[C@@H]1[C@H](O)C[C@@H]1[C@@]3(C)CC[C@H](O[C@@H]4O[C@H](CO)[C@@H](O)[C@H](O)[C@H]4O[C@@H]4O[C@H](CO)[C@@H](O)[C@H](O)[C@H]4O)C(C)(C)[C@@H]3[C@@H](O)C[C@]12C

>  <answer-label>
inactive

$$$$
>  <compound>
C[C@]12CC[C@@H](O)CC1=CC(=O)C1C2CC[C@]2(C)C(=O)[C@H](O)CC12 (stereo partly drawn)

>  <answer-label>
inactive

$$$$
>  <compound>
CCCCOc1c(C(=O)c2c(F)cc(C)cc2F)cnc2n[nH]cc12

>  <answer-label>
active

$$$$
>  <compound>
C[C@@H]1[C@H](O)[C@@H](C)C=CC=CC=CC=CC=CC=CC=C[C@H](O[C@@H]2O[C@H](C)[C@H](O)[C@H](N)[C@@H]2O)C[C@@H]2O[C@](O)(C[C@@H](O)C[C@@H](O)[C@H](O)CC[C@@H](O)C[C@@H](O)CC(=O)O[C@H]1C)C[C@H](O)[C@@H]2C(=O)O

>  <answer-label>
active

$$$$
>  <compound>
COc1cc(/C=C2/C(=O)Nc3ccccc32)cc(OC)c1O

>  <answer-label>
inactive

$$$$

How did this test come out for NCCCCNCCCN ?
inactive

Try the compound C=C1CC23C[C@H]4[C@@H]5[C@@]6(C)C[C@H](OC(=O)c7ccccc7)[C@@H](OC(C)=O)[C@]57[C@@H]2[C@@H](OC(C)=O)[C@H]1[C@@H](O)[C@H]3[C@H]7N4C6
inactive

Try the compound COc1ccc2c(c1)CC1c3c(cc4c(c3-2)OCO4)CC[N+]1(C)[O-] (stereo not drawn)
inactive
